Biological target: T1, apical domain of human CD71 (human, UniProt P02786 189-383, limits assumed)
T1 construct: domain: apical domain; Screen 4 panned on human apical domains, the ELISA text says only 'apical domain'
T1 sequence (P02786 189-383 limits assumed): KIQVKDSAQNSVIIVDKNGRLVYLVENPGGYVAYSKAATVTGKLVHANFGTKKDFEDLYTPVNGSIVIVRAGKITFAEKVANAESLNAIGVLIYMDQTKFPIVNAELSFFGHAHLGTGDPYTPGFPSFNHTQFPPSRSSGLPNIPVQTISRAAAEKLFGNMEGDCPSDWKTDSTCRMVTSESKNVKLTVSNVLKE
Experiment: primary ELISA, RLU over HSA
assayReadout: Apical domain:HSA

Example entries and their recorded answers appear below.
binder: CD71-binding FN3 domain of SEQ ID NO: 539 (designed binder) MLPAPKNLVVSRVTEDSARLSWTAPDAAFDSFFIGYLEPQPPGEAIHLFVPGSERSYDLTGLKPGTEYNVTIQGVKGGFPSDPLHAAFTT
value: 205

binder: CD71-binding FN3 domain of SEQ ID NO: 529 (designed binder) MLPAPKNLVVSRVTEDSARLSWTAPDAAFDSFFIGYLEPQPPGEAIDLYVPGSERSYDLTGLKPGTEYNVTIQGVKGGFPSLPLQAHFTT
value: 366

A: CD71-binding FN3 domain of SEQ ID NO: 491 (designed binder) MLPAPKNLVVSRVTEDSARLSWTAPDAAFDSFFIGYLEPQPSGEAIHLIVPGSERSYDLTGLKPGTEYNVTIQGVKGGFPSDPLVASFTT
B: CD71-binding FN3 domain of SEQ ID NO: 501 (designed binder) MLPAPKNLVVSRVTEDSARLSWTAPDAAFDSFFIGYLEPQPPGEAISLLVPGSERSYDLTGLKPGTEYNVTIQGVKGGFPSVPLSAIFTT
### Prompt Hi! Which is lower in terms of Apical domain:HSA, the first one A or the second one B ? Refer to your chosen entry by its label in the reply.
### Response A
(A: 288, B: 606)
